molecular target: T1, Cynomolgus monkey Serum Albumin (Cynomolgus monkey, UniProt A2V9Z4 25-608); test: BIAcore SPR;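 also: purified dAbs run at 1 µM, 500 nM and 50 nM over human, cynomolgus, mouse and rat serum albumin in BIAcore binding measurements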
T1 construct: mature; purified protein on CM5 chips for BIAcore; also called CSA; cyno SA
T1 sequence (A2V9Z4 25-608): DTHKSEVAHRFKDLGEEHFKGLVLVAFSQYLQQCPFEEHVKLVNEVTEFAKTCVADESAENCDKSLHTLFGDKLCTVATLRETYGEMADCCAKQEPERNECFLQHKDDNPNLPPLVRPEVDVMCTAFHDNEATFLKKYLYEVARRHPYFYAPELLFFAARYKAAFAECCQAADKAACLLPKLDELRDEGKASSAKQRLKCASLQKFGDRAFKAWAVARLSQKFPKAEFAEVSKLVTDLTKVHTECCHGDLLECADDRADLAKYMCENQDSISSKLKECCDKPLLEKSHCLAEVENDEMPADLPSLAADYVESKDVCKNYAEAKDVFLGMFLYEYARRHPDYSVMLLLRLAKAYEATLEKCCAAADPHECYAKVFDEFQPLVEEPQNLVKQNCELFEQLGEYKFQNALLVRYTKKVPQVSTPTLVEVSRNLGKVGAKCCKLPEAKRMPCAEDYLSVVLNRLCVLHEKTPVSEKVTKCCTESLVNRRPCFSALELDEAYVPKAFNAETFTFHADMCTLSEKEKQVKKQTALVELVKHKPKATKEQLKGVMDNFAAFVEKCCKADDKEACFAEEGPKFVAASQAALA
Reported property: Kd (nM)

* DOM7h-11-15 (other) VL: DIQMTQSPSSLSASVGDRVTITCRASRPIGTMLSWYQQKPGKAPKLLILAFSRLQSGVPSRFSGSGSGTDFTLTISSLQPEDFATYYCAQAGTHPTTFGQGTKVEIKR | 3
* DOM7h-14-19 (other, Vk dAb (AlbudAb)) VL: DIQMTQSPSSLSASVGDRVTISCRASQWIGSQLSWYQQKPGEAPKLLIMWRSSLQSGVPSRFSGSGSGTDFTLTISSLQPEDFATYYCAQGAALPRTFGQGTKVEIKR | 225
* DOM7h-11-18 (other) VL: DIQMTQSPSSLSASVGDRVTITCRASRPIGTMLSWYQQKPGKAPKLLIWFGSRLQSGVPSRFSGSGSGTDFTLTISSLQPEDFATYHCAQAGTHPTTFGQGTKVEIKR | 10000
* DOM7h-14 (other, Vk dAb (AlbudAb)) VL: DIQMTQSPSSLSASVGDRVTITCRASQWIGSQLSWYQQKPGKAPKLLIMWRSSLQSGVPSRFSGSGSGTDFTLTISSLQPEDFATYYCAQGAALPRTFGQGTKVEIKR | 66
